Molecular target: T1, SNTG1, Q9NSN8
T1 sequence (Q9NSN8 52-150, limits assumed, looked up): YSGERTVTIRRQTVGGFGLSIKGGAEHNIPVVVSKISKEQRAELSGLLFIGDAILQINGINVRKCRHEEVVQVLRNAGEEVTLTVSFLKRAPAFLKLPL
Test: holdup assay
Parameters: key: below the threshold = too weak to quantify, mostly under pKd 3.1 to 4
Settings: plain residues with an end cap or a label only (N-terminal biotin on a linker: ado-ado)
readout type: pKd
Give bare numbers.

- binder: "VLYPREGTEV [FOXI1, Q12951]"
  endpoint value: 4.13

Turning to the following binder.
Prompt: Fill in pKd for record APIAGFSSFV [SDK2, Q58EX2]
Response: 3.83
